# MEASUREMENT NOTES: protein stability index of a GFP-peptide fusion (yeast GPS) (PSI 1-4); higher = more stable; sorted into four equal gates, so the index is relative within each strain
# COND: ubr1∆
protein stability index below 3 gives Not fulfilled; protein stability index at or above it gives Fulfilled.

Previously resolved entries follow.
| ORDERED RESIDUES | CLASS NAME |
| --- | --- |
| ASVGDILKTLERSICAL [YML031W/NDC1] | Not fulfilled |
| YDSDSDSSVEDSTDNEN [LIN1] | Fulfilled |
| KIFIKDPKFVNSLLAKL [YML103C/NUP188] | Not fulfilled |
| AGKFPTPVSHNDDLYGK [RPL1A] | Not fulfilled |
| AKTFGASVRIFLYPSNI [RPL33A] | Not fulfilled |

[Q] I'd appreciate it if you could say whether PRGTAKLIIHRKNDNAN [SMC3] has protein stability index at least equal to 3.
[A] Not fulfilled

[Q] Item AYFMVGAMGLLSSAGAK [RIP1] with protein stability index of 3 or above?
[A] Not fulfilled

[Q] Is protein stability index for FKELCYENKDNLTAGII [PRE3] at or above 3?
[A] Not fulfilled

[Q] protein stability index >= 3 for FKQSNSETFLQFYVKRW [CDC53] ?
[A] Not fulfilled

[Q] Could you please find out whether IALEGYRLDIIESALKS [RPN2] has protein stability index that meets 3 or exceeds it?
[A] Not fulfilled

[Q] Kindly determine if protein stability index recorded for TGHSQGLVTAVAIAETD [FAS1] is above or exactly 3.
[A] Fulfilled

----------
Task for the reader: assign each of the following sequences its reported protein stability index.
# MEASUREMENT NOTES: protein stability index of a GFP-peptide fusion (yeast GPS) (PSI 1-4); higher = more stable; sorted into four equal gates, so the index is relative within each strain
# COND: ubr1∆
One number for each entry.

| ORDERED RESIDUES | protein stability index |
| --- | --- |
| ELNVEKLNTFNLQTFTH [SRP72] | 2.42 |
| FKGALTIKILPENTAMF [YMR129W/POM152] | 2.25 |

Hey, can you go through the list below and give me protein stability index for every item?
1. ELSDSWRAHDSSIVAID [YGL100W/SEH1]
2. PGTNGKVKKPLKYLSVE [PRE7]
3. RKWVIFITKHLPLLILE [NUT1]

[A]
1. 2.8
2. 3.24
3. 1.2

----------
# MEASUREMENT NOTES: protein stability index of a GFP-peptide fusion (yeast GPS) (PSI 1-4); higher = more stable; sorted into four equal gates, so the index is relative within each strain
# COND: san1∆
METRIC: protein stability index

| ORDERED RESIDUES | RESULT |
| --- | --- |
| ITKVTENLFSKEEVCQG [YMR129W/POM152] | 2.97 |

Quick one: give me protein stability index for each item below, same order please.
1. ANHDDQDDIDEMVENSS [SRP68]
2. PIIATYGNRAEQFLETD [SRP68]
3. HGLKQLRDSLADKIVDE [NUT2]
4. LLVVIFKKTLRSRISSP [SRB4]
5. SYQPMYQRPMQVQGQQQ [SSN3]
6. FGVTKARWPAKSVKFVQ [RPL17A]
7. VENLTVAQECIAFLKKQ [SMC1]

[A]
[3.14, 2.26, 1.52, 1.77, 1.92, 2.55, 2.42]

Entry source: the supplement of paper PMC9732359
